Tested on: bloodstream forms of Trypanosoma brucei brucei
Experiment: resazurin-based antitrypanosomal inhibition assay
Type: cell-based
Details: Trypanosoma brucei, Table 4; negative log of IC50 in molar; read-out: pIC50 T. b. b. (converted)
Description: […] The in vitro inhibitory potency of the 400 MMVPB compounds against bloodstream forms of Trypanosoma brucei brucei was evaluated using the resazurin-based inhibition assay as previously described. Briefly, parasites at their mid-logarithmic growth phase were counted, and the cell density was adjusted with fresh complete HMI-9 medium to 2 × 10^5 trypanosomes per mL. […]
Field: log10(IC50). Provide a value for each of the molecules that follow.
Values reflect log10 of reported IC50 (nM).

| molecule | log10(IC50) |
| --- | --- |
| COc1ccc(NCc2ccc3nc(N)nc(N)c3c2Cl)cc1OC | 3.38 |
| Nc1nc(N)c2cc(CNc3cc(Cl)ccc3Cl)ccc2n1 | 1.66 |
| COc1ccc(NCc2ccc3nc(N)nc(N)c3c2Cl)cc1 | 3.40 |

Report log10(IC50) for every entry below.
1. COc1ccc(OC)c(NCc2ccc3nc(N)nc(N)c3c2Cl)c1
2. COc1ccc(NC(=O)c2ccc3nc(N)nc(N)c3c2)cc1
3. Cc1ccccc1NCc1ccc2nc(N)nc(N)c2c1
4. COc1ccccc1NCc1ccc2nc(N)nc(N)c2c1
5. COc1ccc(NCc2ccc3nc(N)nc(N)c3c2)cc1
6. COc1cccc(CNC(=O)c2ccc3nc(N)nc(N)c3c2)c1
7. Cc1ccccc1NCc1ccc2nc(N)nc(N)c2c1Cl

Reply:
3.42
3.60
2.28
1.78
2.40
3.40
3.36

Report log10(IC50) for every entry below.
1. COc1ccccc1NC(=O)c1ccc2nc(N)nc(N)c2c1
2. COc1ccc(NCc2ccc3nc(N)nc(N)c3c2)cc1OC
3. N=C(N)c1ccc(OCCCCCOc2ccc(C(=N)N)cc2)cc1 [Pentamidine, reference compound]
4. COc1ccccc1NCc1ccc2nc(N)nc(N)c2c1Cl

Reply:
1: 3.51; 2: 2.75; 3: 0.35; 4: 3.51

----------
System: Vero cells
Assay: cytotoxicity against Vero cells (resazurin viability assay)
Conditions: read-out: CC50 Vero; Table 3
Procedure: The resulting pellet was resuspended and counted in a Neubauer chamber in the presence of trypan blue to exclude nonviable cells colored in blue. […] Briefly, Vero cells at a density of 10^4 cells per well were plated in 100 µL of complete DMEM and incubated overnight to allow cell attachment. Plates were then controlled under an inverted fluorescence microscope (Lumascope LS520) to ensure adherence, sterility and cell integrity. […]
Field: CC50. Provide a value for each of the compounds that follow.

| compound | CC50 |
| --- | --- |
| CN1CCN(CCCOc2ncc(Nc3ncc(-c4ccc(C(F)(F)F)c(F)c4)nc3C(N)=O)cn2)CC1 | 2.66 µM |

Report CC50 for every entry below.
1. NC(=O)c1cc(-c2ccsc2)ccc1OCCOc1ccccc1
2. O=C(C(Cc1c[nH]c2ccccc12)NS(=O)(=O)c1ccc(Cl)cc1)N1CCCCC1 (centres unmarked)
3. CS(=O)(=O)c1ccc(C(=O)N(CC2CCCO2)c2nc3ccccc3s2)cc1[N+](=O)[O-] (centres unmarked)
4. Cn1c(=O)c2c(S(C)(=O)=O)snc2n(C)c1=O
5. CN1CCC(NCc2cccc(-c3ccc(S(=O)(=O)NCc4ccccc4)cc3)c2)CC1
6. COc1cc(-c2cc(-c3ccc(S(C)(=O)=O)cc3)cnc2N)ccc1O
7. O=C(NCCN1CCCC1)c1cc(NCCCCN2CCC(F)(F)CC2)nc2ccc(Cl)cc12

Reply:
> 100 µM
> 100 µM
> 100 µM
6.4 µM
13.1 µM
> 100 µM
> 100 µM
